biological target: recombinant soluble homotrimeric HA of A/Netherlands/219/03 (H7N7) (Influenza A virus A/Netherlands/219/03(H7N7)); assay: HA microarray, BCC supernatant; settings: remark: other sources report otherwise
# reported Trimeric HA Binding: RLU; entries follow
Measured Property: Trimeric HA Binding: RLU (RLU)

[
  {
    "Binder": "TCN-555 (5246_L16) (antibody, V domains shown) VH: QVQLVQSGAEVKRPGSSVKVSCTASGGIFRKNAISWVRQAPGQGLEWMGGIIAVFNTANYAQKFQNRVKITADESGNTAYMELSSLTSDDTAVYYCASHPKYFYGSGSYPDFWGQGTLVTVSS VL: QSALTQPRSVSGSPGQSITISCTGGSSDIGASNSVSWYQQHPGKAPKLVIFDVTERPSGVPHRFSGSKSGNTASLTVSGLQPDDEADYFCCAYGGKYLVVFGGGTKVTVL",
    "Experimental Result": 3400
  },
  {
    "Binder": "TCN-551 (5243_D01) (antibody, V domains shown) VH: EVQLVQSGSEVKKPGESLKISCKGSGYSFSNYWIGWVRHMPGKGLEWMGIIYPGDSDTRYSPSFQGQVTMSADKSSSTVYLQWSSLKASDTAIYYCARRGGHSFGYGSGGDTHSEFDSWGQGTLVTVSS VL: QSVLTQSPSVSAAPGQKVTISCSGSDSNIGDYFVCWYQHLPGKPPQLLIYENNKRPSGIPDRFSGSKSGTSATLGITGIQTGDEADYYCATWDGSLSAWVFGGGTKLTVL",
    "Experimental Result": 786
  },
  {
    "Binder": "TCN-547 (5092_F11) (antibody, V domains shown) VH: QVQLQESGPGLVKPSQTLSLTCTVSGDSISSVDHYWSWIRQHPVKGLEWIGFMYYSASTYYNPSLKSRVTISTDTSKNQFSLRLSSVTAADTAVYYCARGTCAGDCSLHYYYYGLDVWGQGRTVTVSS VL: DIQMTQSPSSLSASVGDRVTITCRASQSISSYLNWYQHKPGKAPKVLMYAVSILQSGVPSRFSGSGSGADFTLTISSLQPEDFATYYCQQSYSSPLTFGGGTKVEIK",
    "Experimental Result": 401
  }
]
